src = ChEMBL document CHEMBL1123047

Molecular target: Beta-2 adrenergic receptor (Bos taurus)
Sequence (Q28044 whole entry): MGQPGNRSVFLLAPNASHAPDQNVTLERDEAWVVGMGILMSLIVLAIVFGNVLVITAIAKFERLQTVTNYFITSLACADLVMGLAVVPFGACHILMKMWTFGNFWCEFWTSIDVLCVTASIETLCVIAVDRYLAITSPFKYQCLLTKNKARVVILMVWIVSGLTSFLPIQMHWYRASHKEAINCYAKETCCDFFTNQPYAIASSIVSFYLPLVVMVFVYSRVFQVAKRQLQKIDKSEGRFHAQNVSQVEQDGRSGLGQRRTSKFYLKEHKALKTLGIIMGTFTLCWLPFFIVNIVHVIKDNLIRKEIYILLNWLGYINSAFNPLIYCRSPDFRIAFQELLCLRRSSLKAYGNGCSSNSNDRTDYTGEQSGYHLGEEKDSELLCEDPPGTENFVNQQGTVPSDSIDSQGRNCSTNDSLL
Hi there, I'd appreciate the recorded -Log KD for every entry that follows.
Answers are plain numbers.

Here's what some known entries look like.
[[record]]
compound = "CC(C)NCC(O)COc1ccccc1C1CC1 (stereo not drawn)"
assay_value = 9.41

[[record]]
compound = "CC(C)(C)NCC(O)c1ccc(O)c(N)c1 (stereo not drawn)"
assay_value = 5.99

[[record]]
compound = "C#CCOc1ccccc1OCC(O)CNC(C)C (stereo not drawn)"
assay_value = 8.97


# map each compound to its -Log KD
1. CC(C)NCC(O)COc1ccccc1CO (stereo not drawn)
2. CCC(C)c1cccc(OCC(O)CNC(C)C)c1 (stereo not drawn)
3. CC(C)NCC(O)c1ccc(O)c(N)c1 (stereo not drawn)

[7.6, 8.05, 5.59]

# map each compound to its -Log KD
1. CC(C)NCC(O)COc1ccccc1 (stereo not drawn)
2. CC(C)NCC(O)c1cccc(O)c1 (stereo not drawn)
3. CCCc1ccccc1OCC(O)CNC(C)C (stereo not drawn)
4. CC(C)(C)NCC(O)c1ccc(O)c(CO)c1 (stereo not drawn)
5. CC(C)NCC(O)c1ccc(O)c(CO)c1 (stereo not drawn)
6. CC(C)NCC(O)c1ccc2ccccc2c1 (stereo not drawn)
7. Cc1cc(C)cc(OCC(O)CNC(C)C)c1 (stereo not drawn)

1. 7.57
2. 6.34
3. 9.2
4. 6.58
5. 5.8
6. 7.1
7. 8.29

# map each compound to its -Log KD
1. Cc1ccccc1OCC(O)CNC(C)C (stereo not drawn)
2. CC(C)(C)NCC(O)c1cc(O)cc(O)c1 (stereo not drawn)

1: 8.29; 2: 5.73

# map each compound to its -Log KD
1. CC(C)(C)NCC(O)c1ccc(O)cc1 (stereo not drawn)
2. CC(C)NCC(O)c1cc(Cl)c(N)c(Cl)c1 (stereo not drawn)
3. CC(C)NC[C@H](O)COc1ccc(O)cc1
4. CC(C)(C)NCC(O)c1cc(Cl)c(O)c(Cl)c1 (stereo not drawn)
5. CC(C)NCC(O)COc1ccccc1C#N (stereo not drawn)
6. CC(C)NCC(O)c1ccc(NS(C)(=O)=O)cc1 (stereo not drawn)

1. 6.2
2. 7.54
3. 6.27
4. 7.41
5. 7.96
6. 6.57

# map each compound to its -Log KD
1. Cc1cccc(OCC(O)CNC(C)C)c1 (stereo not drawn)
2. CC(C)(C)NCC(O)c1ccc(O)c(O)c1 (stereo not drawn)

1. 7.66
2. 6.55

----------
Target: Beta-2 adrenergic receptor (Bos taurus)
RESULT_TYPE: Kd (nM)
Give bare numbers, in nM.

Here's what some known entries look like.
[[record]]
molecule = "CC(C)NCC(O)c1cccc(O)c1 (stereo not drawn)"
target = "Beta-2 adrenergic receptor (Bos taurus)"
result_type = "Kd"
assay_value = 910

[[record]]
molecule = "Cc1cccc(OCC(O)CNC(C)C)c1 (stereo not drawn)"
target = "Beta-2 adrenergic receptor (Bos taurus)"
result_type = "Kd"
assay_value = 43.6


API: the following record is the query input.
Check the records and state Kd for CC(C)(C)NCC(O)c1ccc(O)cc1 (stereo not drawn)
1260

----------
Hi there, I'd appreciate the recorded logP for every entry that follows.
Assay: Partition coefficient (logP)
Conditions: octanol/water

[[record]]
compound = "CCCc1ccccc1"
assay_value = 3.57

[[record]]
compound = "Oc1cccc(O)c1 [RESORCINOL]"
assay_value = 0.8

[[record]]
compound = "Nc1ccccc1O [QUESTIOMYCIN B]"
assay_value = 0.52


Check the records and state logP for OCc1ccccc1O [SALICYL ALCOHOL]
0.73
